Biological target: aldose reductase (Bos taurus, UniProt P16116)
Construct: preparation of the enzyme from bovine lens; from tissue; host or cells: bovine lens
Assay: in vitro aldose reductase inhibition (modified Hayman and Kinoshita procedure, enzyme from bovine lens)
Format: biochemical
Settings: 4 × 10^-8 M
test-readout: inhibition at 0.04 µM (%)
Please reply with the bare figure in % and do not write the unit itself.

- molecule: "O=C1CC2(C(=O)N1)C(=O)N(Cc1nc3ccccc3s1)C(=O)c1ccc(F)cc12 (stereo not shown)"
  inhibition at 0.04 µM (%): 91
- molecule: "O=C1CC2(C(=O)N1)C(=O)N(Cc1nc3cc(C(F)(F)F)ccc3s1)C(=O)c1ccccc12 (stereo not shown)"
  inhibition at 0.04 µM (%): 90

Quick check: inhibition at 0.04 µM on aldose reductase (Bos taurus, UniProt P16116), item O=C1CC2(C(=O)N1)C(=O)N(Cc1nc3ccccc3s1)C(=O)c1ccccc12 (stereo not shown) ? 81

Quick check: inhibition at 0.04 µM on aldose reductase (Bos taurus, UniProt P16116), item O=C1CC2(C(=O)N1)C(=O)N(Cc1nc3cc(C(F)(F)F)ccc3s1)C(=O)c1ccc(F)cc12 (stereo not shown) ? 92
